System: Fibroblast
run_description: Multiplex assay against human fibroblast
Type: toxicity, cell-based
measurement_context: 12 h, 1 µM, compound concentration 1 uM, replicate 1
reported_endpoint: Population Healthy Nuclei (%)

[[record]]
compound = "Cc1ccc(OCC(O)C(C)NC(C)C)c2c1CCC2.Cl (configuration not stated)"
quantitative_result = 68

[[record]]
compound = "O=c1ccc2ccc(OCCCCN3CCN(c4cccc5sccc45)CC3)cc2[nH]1"
quantitative_result = 62

[[record]]
compound = "COCCCN1CCC(NC(=O)c2cc(Cl)c(N)c3c2OCC3)CC1 [PRUCALOPRIDE]"
quantitative_result = 62

[[record]]
compound = "Cn1cc(C(=O)OCC2CCN(CCNS(C)(=O)=O)CC2)c2ccccc21"
quantitative_result = 71

[[record]]
compound = "C[C@H](NC(=O)CNC(=O)c1cccc(Cl)c1)c1ccccc1"
quantitative_result = 71

[[record]]
compound = "CN1C[C@H](C(=O)N[C@]2(C)O[C@@]3(O)[C@@H]4CCCN4C(=O)[C@H](Cc4ccccc4)N3C2=O)C[C@@H]2c3cccc4[nH]cc(c34)C[C@H]21.CS(=O)(=O)O [DIHYDROERGOTAMINE MESYLATE]"
quantitative_result = 70

[[record]]
compound = "CSc1nc(NC2CCCC2)c([N+](=O)[O-])c(NC2CCCC2)n1"
quantitative_result = 66

[[record]]
compound = "CN1CCN2c3ccccc3Cc3ccccc3C2C1.Cl (configuration not stated) [MIANSERIN HYDROCHLORIDE]"
quantitative_result = 56

[[record]]
compound = "COc1cc(Nc2ncc3c(n2)-c2ccc(Cl)cc2C(c2c(F)cccc2OC)=NC3)ccc1C(=O)O"
quantitative_result = 66

[[record]]
compound = "CN1CCN(c2ccc(Nc3c4ccccc4nc4ccccc34)cc2)CC1.Cl.Cl.O"
quantitative_result = 69

[[record]]
compound = "COc1ccc2[nH]c(I)c(CCNC(C)=O)c2c1"
quantitative_result = 64

[[record]]
compound = "O=c1nc2[nH]c3ccccc3nc-2c(=O)[nH]1"
quantitative_result = 67

[[record]]
compound = "Cc1cc(O)c(-c2ccc([C@@H](C)CN(C)C)cc2)c2c1[nH]c(=O)c1sccc12"
quantitative_result = 67

[[record]]
compound = "COc1cc(C(=O)N2CC[C@@H](O)[C@@H](N)C2)cc2nc(-c3cc4ccccc4n3CC3CC3)n(C)c12.Cl"
quantitative_result = 62

[[record]]
compound = "CN(C)C/C=C/C(=O)Nc1ccc(C(=O)N2CCCC(Nc3ncc(Cl)c(-c4c[nH]c5ccccc45)n3)C2)cc1 (configuration not stated)"
quantitative_result = 64

[[record]]
compound = "Cc1sc2c(c1C)C(c1ccc(Cl)cc1)=N[C@H](CC(=O)OC(C)(C)C)c1nnc(C)n1-2"
quantitative_result = 62

[[record]]
compound = "Cc1cc(=O)n(C)c2cc(N3C(=O)CC[C@H](NS(=O)(=O)CC(C)C)[C@H]3c3ccc(Cl)cc3)ccc12"
quantitative_result = 56

